system: HS 578T breast; experiment: NCI-60 one-dose screen, 48 h; conditions: 10 µM unless noted
Compounds without any hit were thinned out: in the full panel of roughly 83,000, 20% have a hit. The source made the active and inactive calls. How the source made its calls: active means growth percent below 10; inactive means the rest.
A correct response names exactly one class from active, inactive

Please share the test call associated with CCOC(=O)[C@@H](C)C[C@H](Cc1ccccc1)NC(=O)c1csc([C@@H](C[C@H](C(C)C)N(C)C(=O)[C@@H](NC(=O)[C@H]2CCCCN2C)C(C)(C)C)OC(C)=O)n1 .
active

Please share the test call associated with Nc1ncnc2n[nH]nc12 .
inactive

Please share the test call associated with COc1cc(NC(C)CCCNC2CN3CCC2CC3)c2ncccc2c1 (stereo not given) .
inactive

Please share the test call associated with CC(=O)O[C@H]1CC[C@@]2(C)C(=CC[C@H]3[C@@H]4C[C@@H](N5CC5)[C@H](C(C)=O)[C@@]4(C)CC[C@@H]32)C1 .
inactive

Please share the test call associated with COc1ccc(/C=C\c2cc(OC)c(OC)c(OC)c2)cc1NC(=O)/C=C/c1ccc(OC)c(OC)c1 .
inactive

----------
tested on: HCT-15 colon; experiment: NCI-60 one-dose screen, 48 h; conditions: 10 µM unless noted
This is part of a sample that, as a whole, favours compounds with a hit. Of some 83,000 tested, about 20% had one in any assay. The source made the active and inactive calls. Rule for the calls: active = growth percent below 10; inactive = the rest.
A correct response names exactly one class from 1.0 for active, 0.0 for inactive

Please share the test call associated with CCOC(=O)[C@@H](C)C[C@H](Cc1ccccc1)NC(=O)c1csc([C@@H](C[C@H](C(C)C)N(C)C(=O)[C@H](CCC(C)C)NC(=O)[C@H]2CCCCN2C)OC(C)=O)n1 .
0.0

Please share the test call associated with CCCCN(CCCC)P(=O)(Oc1ccccc1)Oc1ccccc1 .
0.0

Please share the test call associated with C/C(=C\c1ccn(-c2ccc(N)c(F)c2)n1)[C@@H]1C[C@@H]2O[C@]2(C)CCC[C@H](C)[C@H](O)[C@@H](C)C(=O)C(C)(C)[C@@H](O)CC(=O)O1 .
0.0

Please share the test call associated with CNC(=O)Oc1ccc(C(C)(C)C)cc1OC(=O)NC .
0.0

Please share the test call associated with COc1ccc(/C=C\c2cc(OC)c(OC)c(OC)c2)cc1OCC(=O)Nc1nc2ccc(OC(F)(F)F)cc2s1 .
0.0

Please share the test call associated with C=C1C(=O)O[C@H]2[C@H]1CC/C(COC(=O)C(=O)c1cn(Cc3ccccc3)c3ccccc13)=C\CC[C@@]1(C)O[C@@H]21 .
1.0

Please share the test call associated with COC(=O)CC12CC(NC(=O)c3csc([C@@H](C[C@H](C(C)C)N(C)C(=O)[C@@H](NC(=O)[C@H]4CCCCN4C)C(C)C)OC(C)=O)n3)(C1)C2 .
0.0

----------
test system: OVCAR-5 ovarian; assay: NCI-60 one-dose screen, 48 h (100 = growth as untreated, 0 = no growth, -100 = all killed); conditions: 10 µM unless noted
Compounds without any hit were thinned out: in the full panel of roughly 83,000, 20% have a hit. The source made the active and inactive calls. How the source made its calls: active means growth percent below 10; inactive means the rest.
Measured Metric: growth

Fill in: growth of O=C(O)C(Cl)(Cl)C(F)(F)F is ___
103% (inactive)

Fill in: growth of CO[C@H]1CC[C@@]2(C)C(=CC[C@@H]3[C@@H]2CC[C@]2(C)C(=O)C(=O)C[C@@H]32)C1 is ___
103% (inactive)

Fill in: growth of O=C1C(Cl)=C(N2CCOCC2)C(=O)c2ccccc21 is ___
119% (inactive)

Fill in: growth of Cn1cc(-c2csc(-c3cn(CCCCN4CCCCC4)c4ccc(F)cc34)n2)c2cccnc21 is ___
103% (inactive)

Fill in: growth of O=C(N/N=C/c1ccc(N(CCCl)CCCl)cc1)c1cccc2ccccc12 is ___
93% (inactive)

----------
tested on: SN12C renal; assay: NCI-60 one-dose screen, 48 h (100 = growth as untreated, 0 = no growth, -100 = all killed); details: 10 µM unless noted
About 83,000 compounds went through this panel and 20% of them were active in at least one assay; those are over-represented in the sample as a whole.
Class definitions on growth: low-valued: < 50%; mid-valued: ≥ 50% and < 90%; high-valued: ≥ 90%

Which class is correct for the following compound? O=C1CCC2(O)[C@@H]3Cc4ccc(O)c5c4[C@]2(CCN3Cc2ccoc2)C1O5 (some centres undefined)
high-valued

Which class is correct for the following compound? Cc1ccc(C(Cc2ccccc2)NCCO)cc1 (centres undefined)
high-valued

Which class is correct for the following compound? CC[CH2][Sn]([Cl])([Cl])[CH2]CC
mid-valued

Which class is correct for the following compound? Cn1cc(-c2csc(-c3cn(CCN4CCOCC4)c4ccccc34)n2)c2cccnc21
mid-valued

Which class is correct for the following compound? Fc1ccc2c(c1)c(-c1nc(-c3c[nH]c4ncccc34)cs1)cn2CCCCN1CCCCC1
low-valued

Which class is correct for the following compound? C=C1C[C@](OC)([C@H](O)C(=O)N[C@@H](OC)[C@@H]2C[C@@H](O)C(C)(C)[C@@H](C[C@@H](COC)OC)O2)O[C@H](C)[C@@H]1C
low-valued

Which class is correct for the following compound? COc1cc(/C=C\c2cc(OC)c(OC)c(OC)c2)cc(N/C=C\C(=O)c2cc(OC)c(OC)c(OC)c2)c1OC
low-valued

Which class is correct for the following compound? O=C(NCCN1CC1)C(=O)NCCN1CC1
mid-valued

Which class is correct for the following compound? COc1ccc(C/C(C)=C(\c2ccc(OCCN3CCOCC3)cc2)c2ccc(OC(=O)Cc3ccccc3)cc2)cc1
low-valued

Which class is correct for the following compound? COc1ccc(N(CC(=O)NCCC[Te]c2ccccc2)C(=O)CNC(=O)OC(C)(C)C)cc1
low-valued

Which class is correct for the following compound? COC(=O)[C@@H](C)C[C@H](Cc1ccc(F)cc1)NC(=O)c1csc([C@@H](C[C@H](C(C)C)N(C)C(=O)[C@@H](NC(=O)[C@H]2CCCCN2C)C(C)C)OC(C)=O)n1
low-valued

Which class is correct for the following compound? O=C1C2CCC1C(N1CCCC1)CC2 (centres undefined)
high-valued

Which class is correct for the following compound? CCOC(=O)[C@@H](C)C[C@H](Cc1ccccc1)NC(=O)c1csc([C@@H](C[C@H](C(C)C)N(C)C(=O)[C@H](CC)NC(=O)[C@H]2CCCCN2C)OC(C)=O)n1
low-valued

Which class is correct for the following compound? [Au+].[N-]=C=O.c1ccc(CN2[CH-]N(Cc3ccccc3)C(c3ccccc3)=C2c2ccccc2)cc1
mid-valued

Which class is correct for the following compound? [Cl][Hg][c]1cc[c]([Hg][Cl])o1
low-valued

Which class is correct for the following compound? Nc1c(F)cc(-c2nc3cc(F)ccc3[se]2)cc1F
mid-valued

Which class is correct for the following compound? O=C1CN=C(c2ccc(Cl)cc2)c2sccc2N1
high-valued

Which class is correct for the following compound? CC(=O)Nc1ccc(NC(=O)c2ccc([As](O)O)cc2)cc1
high-valued

Which class is correct for the following compound? COc1ccc(S(=O)(=O)N(Cc2ccc3c(c2)C=CC(C)(C)O3)c2ccccc2)cc1OC
high-valued

Which class is correct for the following compound? C=C1[C@@H](C)[C@H]2[C@H](Cc3ccccc3)NC(=O)[C@]23[C@@H](O)/C=C/[C@@](C)(O)C(=O)[C@@H](C)C/C=C/[C@H]3[C@@H]1O
mid-valued

Which class is correct for the following compound? CC(=O)OC1CCC2C3CCC4=C/C(=N/OC(=O)c5ccc(N(CCCl)CCCl)cc5)CCC4(C)C3CC(C)C12 (centres undefined)
mid-valued

Which class is correct for the following compound? NC(=O)CNc1ccc([As]=[As]c2ccc(NCC(N)=O)cc2)cc1 (centres undefined)
low-valued

Which class is correct for the following compound? CCCCCCCCCCCCCCCCCC1OC[C@@H](COC(=O)O[C@@H](C(=O)O[C@H]2C[C@@]3(O)[C@@H](OC(=O)c4ccccc4)[C@@H]4[C@]5(OC(C)=O)CO[C@@H]5C[C@H](O)[C@@]4(C)C(=O)[C@H](OC(C)=O)C(=C2C)C3(C)C)[C@@H](NC(=O)c2ccccc2)c2ccccc2)O1 (some centres undefined)
mid-valued

Which class is correct for the following compound? CCCCCC1(CCBr)C(=O)NC(=O)NC1=O
high-valued

Which class is correct for the following compound? O=[N+]([O-])CC(c1ccccc1Cl)c1c(-c2ccccc2)[nH]c2ccccc12 (centres undefined)
mid-valued

Which class is correct for the following compound? CCOC(=O)[C@@H](C)C[C@H](Cc1ccccc1)NC(=O)c1csc([C@@H](C[C@H](C(C)C)N(C)C(=O)[C@@H](NC(=O)[C@H]2CCCCN2C)C(C)(C)CC)OC(C)=O)n1
low-valued

Which class is correct for the following compound? CC1(C)CN1P(=O)(N1CC1(C)C)N1CC1(C)C (centres undefined)
high-valued

Which class is correct for the following compound? CC(=O)[O][Hg][O]C(C)=O
high-valued

Which class is correct for the following compound? CCOC(=O)[C@@H](C)C[C@H](Cc1ccccc1)NC(=O)c1csc([C@@H](C[C@H](C(C)C)N(C)C(=O)[C@H](CCC(C)C)NC(=O)[C@H]2CCCCN2C)OC(C)=O)n1
low-valued

Which class is correct for the following compound? CCOP(=O)(NC[C@H]1O[C@](O)(CO)[C@@H](O)[C@@H]1O)OCC
high-valued
